- SYSTEM UNDER TEST: human GnRH receptor (Homo sapiens)
- Sequence (P30968 whole entry): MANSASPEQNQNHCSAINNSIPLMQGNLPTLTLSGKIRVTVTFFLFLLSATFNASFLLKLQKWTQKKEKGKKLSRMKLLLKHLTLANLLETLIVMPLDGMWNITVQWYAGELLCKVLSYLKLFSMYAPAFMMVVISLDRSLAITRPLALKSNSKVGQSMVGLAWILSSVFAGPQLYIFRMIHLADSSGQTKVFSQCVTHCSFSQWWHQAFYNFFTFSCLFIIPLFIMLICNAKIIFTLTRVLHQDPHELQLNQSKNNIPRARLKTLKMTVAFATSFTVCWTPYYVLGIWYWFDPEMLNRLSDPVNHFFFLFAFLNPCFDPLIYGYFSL
- TEST PROTOCOL: IP-One HTRF assay with buserelin (at EC80) stimulation
- MEASUREMENT PARAMETERS: CHO cells stably expressing human GnRH receptor, read-out: Potency in IP-One HTRF assay, given as IC50
- Excerpt: 2.3. IP-One HTRF® Assay By using homogenous time-resolved fluorescence resonance energy transfer (HTRF), the generation of one component of the GnRH—R signalling cascade can be measured. […] In cell lysates, IP1 can be detected via an antibody-based HTRF detection technology, where IP1 can displace the FRET acceptor IP1-d2 from binding by Terbium-labelled anti-IP1 antibody as donor resulting in a signal decrease. […]
Note to self: class labels come from recorded IC50, ranges listed here: low: < 40 nM; mid: ≥ 40 nM and < 600 nM; high: ≥ 600 nM

INSERT INTO measurements (molecule, class) VALUES
  ('N#Cc1ccc(S(=O)(=O)N2c3ccc(C(=O)Nc4ccccc4F)cc3C3(CCS(=O)(=O)CC3)C2C2CC2)cc1 (stereo not drawn)', 'mid'),
  ('COc1cccc(S(=O)(=O)N2c3ccc(C(=O)Nc4cccc(S(=O)(=O)N(C)C)c4)cc3C3(CCS(=O)(=O)CC3)C2C2CC2)c1 (single isomer, unassigned) [Example 43.2]', 'low'),
  ('C=CCC1N(S(=O)(=O)c2ccc(F)cc2)c2ccc(C(=O)NCc3ncccc3Cl)cc2C12CCS(=O)(=O)CC2 (stereo not drawn)', 'mid'),
  ('COC(=O)c1cccc(S(=O)(=O)N2c3ccc(C(=O)NCc4ccccc4Cl)cc3C3(CCS(=O)(=O)CC3)C2C2CC2)c1 (single isomer, unassigned) [Example 60.2]', 'high'),
  ('CC(C)(NC(=O)c1ccc2c(c1)C1(CCS(=O)(=O)CC1)C(C1CC1)N2S(=O)(=O)c1ccc(F)cc1)c1ccc(F)cc1Cl (stereo not drawn)', 'high'),
  ('COc1cccc(S(=O)(=O)N2c3ccc(C(=O)NCc4ncccc4C(F)(F)F)cc3C3(CCS(=O)(=O)CC3)C2C2CC2)c1 (single isomer, unassigned) [Example 39.2]', 'mid'),
  ('O=C(NCc1ncccc1F)c1ccc2c(c1)C1(CCS(=O)(=O)CC1)C(C1CC1)N2S(=O)(=O)c1ccc(F)cc1 (stereo not drawn)', 'high'),
  ('COc1cccc(S(=O)(=O)N2c3ccc(C(=O)NCc4ncccc4Cl)cc3C3(CCS(=O)(=O)CC3)C2C2CC2)c1 (stereo not drawn) [Example 41]', 'mid'),
  ('N#Cc1ccc(S(=O)(=O)N2c3ccc(C(=O)Nc4ncco4)cc3C3(CCS(=O)(=O)CC3)C2C2CC2)cc1 (stereo not drawn)', 'mid'),
  ('O=C(NCc1ncccc1C(F)(F)F)c1ccc2c(c1)C1(CCS(=O)(=O)CC1)C(C1CC1)N2S(=O)(=O)c1ccc(F)cc1 (stereo not drawn) [Example 15]', 'mid'),
  ('CC1N(S(=O)(=O)c2ccc(F)cc2)c2ccc(C(=O)Nc3cccc(S(C)(=O)=O)c3)cc2C12CCOCC2 (stereo not drawn)', 'high'),
  ('N#Cc1ccc(S(=O)(=O)N2c3ccc(C(=O)NCc4ccccc4C(F)(F)F)cc3C3(CCS(=O)(=O)CC3)C2C2CC2)cc1 (stereo not drawn) [Example 72]', 'low'),
  ('O=C(NCc1ccccc1Cl)c1ccc2c(c1)C1(CCS(=O)(=O)CC1)C(C1CC1)N2S(=O)(=O)c1cccc(OC(F)(F)F)c1 (stereo not drawn)', 'mid'),
  ('N#Cc1cccc(S(=O)(=O)N2c3ccc(C(=O)NCc4ccccc4Cl)cc3C3(CCS(=O)(=O)CC3)C2C2CC2)c1 (stereo not drawn) [Example 76]', 'mid'),
  ('O=C(NC1CCOc2ccccc21)c1ccc2c(c1)C1(CCS(=O)(=O)CC1)C(C1CC1)N2S(=O)(=O)c1ccc(F)cc1 (stereo not drawn) [Example 33]', 'high'),
  ('O=C(NCc1ccccc1C(F)F)c1ccc2c(c1)C1(CCS(=O)(=O)CC1)C(C1CC1)N2S(=O)(=O)c1ccc(F)cc1 (stereo not drawn) [Example 68]', 'low'),
  ('C=CCC1N(S(=O)(=O)c2cccc(C(=O)O)c2)c2ccc(C(=O)NCc3ccccc3Cl)cc2C12CCS(=O)(=O)CC2 (stereo not drawn)', 'mid'),
  ('N#Cc1cccc(S(=O)(=O)N2c3ccc(C(=O)Nc4cncc(Cl)c4)cc3C3(CCS(=O)(=O)CC3)C2C2CC2)c1 (single isomer, unassigned) [Example 77.2]', 'high'),
  ('N#Cc1cccc(S(=O)(=O)N2c3ccc(C(=O)Nc4cncc(Cl)c4)cc3C3(CCS(=O)(=O)CC3)C2C2CC2)c1 (single isomer, unassigned) [Example 77.1]', 'mid'),
  ('CC1N(S(=O)(=O)c2ccc(F)cc2)c2ccc(C(=O)NCc3ccccn3)cc2C12CCOCC2 (stereo not drawn)', 'high'),
  ('O=C(NCc1ccccc1Cl)c1ccc2c(c1)C1(CC[S+]([O-])CC1)C(C1CC1)N2S(=O)(=O)c1ccc(F)cc1 (stereo not drawn) [Example 13]', 'low'),
  ('O=C(NCc1ccccc1Cl)c1ccc2c(c1)C1(CCS(=O)(=O)CC1)C(C1CC1)N2S(=O)(=O)c1ccc(F)cc1 (single isomer, unassigned) [Example 18.1]', 'low');
